Provide the recorded TGI for the entries that follow.
Tested on: XF 498 CNS
ASSAY SUMMARY: NCI tumour cell line growth inhibition, 48 h
The figure you give is taken to be in µM; do not add the unit.

Form field: reported TGI of `CCNC(=O)OCc1c(COC(=O)NCC)c(-c2ccc(Cl)c(Cl)c2)n2c1CCC2`
36.3

What about `O=c1c(Cl)c(Cl)cnn1CCCl` ?
11.7

Next record, please: `O=C1/C(=C/c2ccc(Cl)cc2)CNC/C1=C\c1ccc(Cl)cc1`
7.28

How about this molecule: `COc1cc(OC)cc(-c2cc(=O)c3cc4c(cc3[nH]2)OCO4)c1`
2.58
